Each recorded value in this set is attributed to patent US11021479B2.

Please respond with reported IC50 for every item in the list.
System: JAK1 (Homo sapiens, UniProt P23458)
Sequence (P23458 850-1154 limits assumed): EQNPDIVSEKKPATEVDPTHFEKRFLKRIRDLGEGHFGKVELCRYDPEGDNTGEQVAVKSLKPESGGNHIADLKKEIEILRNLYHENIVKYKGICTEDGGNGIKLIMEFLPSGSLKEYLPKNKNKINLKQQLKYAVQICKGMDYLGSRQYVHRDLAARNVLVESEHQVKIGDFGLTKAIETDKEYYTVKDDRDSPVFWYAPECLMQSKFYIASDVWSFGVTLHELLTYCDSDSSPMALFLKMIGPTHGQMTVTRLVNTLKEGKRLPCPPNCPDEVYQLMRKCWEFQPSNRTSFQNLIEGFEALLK
Assay Method Text: Functional assay of protein Janus kinases (Caliper mobility shift), JAK1
Condition Label: ATP 100 μM, incubation 150 min; read-out: JAK1 enzymatic activity (IC50) score

Request: Note IC50 for the compound shown: "O=C(NC1CCCCC1)c1cccn2c(=O)c3cc(F)ccc3nc12"
Response: > 1 µM

Request: Note IC50 for the compound shown: "O=C(N[C@H]1CCCC[C@H]1O)c1cccn2c(=O)c3cc(-c4ccncc4)ccc3nc12"
Response: > 1 µM

Request: Note IC50 for the compound shown: "O=C(N[C@H]1CCCC[C@@H]1O)c1cccn2c(=O)c3cc(C4CC4)ccc3nc12"
Response: > 1 µM

Request: Note IC50 for the compound shown: "O=C(N[C@H]1CC[C@H](O)CC1)c1cccn2c(=O)c3cc(C4CC4)ccc3nc12"
Response: > 1 µM

Request: Note IC50 for the compound shown: "O=C(NC1CCCCC1)c1cccn2c(=O)c3cc(N4CCOCC4)ccc3nc12"
Response: > 1 µM

Request: Note IC50 for the compound shown: "O=C(NC1CCOCC1)c1cccn2c(=O)c3cc(C4CC4)ccc3nc12"
Response: > 1 µM

Request: Note IC50 for the compound shown: "O=C(N[C@@H]1CCCC[C@H]1O)c1cccn2c(=O)c3cc(C4CC4)ccc3nc12"
Response: > 1 µM

Request: Note IC50 for the compound shown: "O=C(NC1CCCCC1)c1cccn2c(=O)c3cc(Br)ccc3nc12"
Response: > 1 µM

Request: Note IC50 for the compound shown: "O=C(NC1CCCC1)c1cccn2c(=O)c3cc(Br)ccc3nc12"
Response: > 1 µM

Request: Note IC50 for the compound shown: "O=C(N[C@H]1CCCC[C@H]1O)c1cccn2c(=O)c3cc(Br)ccc3nc12"
Response: > 1 µM

Request: Note IC50 for the compound shown: "O=C(N[C@@H]1CCCC[C@@H]1O)c1cccn2c(=O)c3cc(C4CC4)ccc3nc12"
Response: > 1 µM

Request: Note IC50 for the compound shown: "O=C(NC1CCCC1)c1cccn2c(=O)c3cc(O)ccc3nc12"
Response: > 1 µM

Request: Note IC50 for the compound shown: "CN1CCN(c2ccc3nc4c(C(=O)NC5CCCCC5)cccn4c(=O)c3c2)CC1"
Response: > 1 µM

Request: Note IC50 for the compound shown: O=C(NC1CCCCC1O)c1cccn2c(=O)c3cc(C4CC4)ccc3nc12 (stereo not drawn)
Response: > 1 µM

Request: Note IC50 for the compound shown: "O=C(NC1CCCCC1)c1cccn2c(=O)c3cc(-c4ccc(F)cc4)ccc3nc12"
Response: > 1 µM

Request: Note IC50 for the compound shown: "C[C@]1(O)CC[C@H](NC(=O)c2cccn3c(=O)c4cc(C5CC5)ccc4nc23)CC1"
Response: > 1 µM

Request: Note IC50 for the compound shown: "O=C(NC1CCCCC1)c1cccn2c(=O)c3cc(C4CC4)ccc3nc12"
Response: > 1 µM

Request: Note IC50 for the compound shown: "CN1CCC(NC(=O)c2cccn3c(=O)c4cc(C5CC5)ccc4nc23)CC1"
Response: > 1 µM

Request: Note IC50 for the compound shown: "O=C(NC1CCCC1)c1cccn2c(=O)c3cc(C4CC4)ccc3nc12"
Response: > 1 µM

Request: Note IC50 for the compound shown: CC1COCCC1NC(=O)c1cccn2c(=O)c3cc(C4CC4)ccc3nc12 (stereo not drawn)
Response: > 1 µM

Request: Note IC50 for the compound shown: "O=C(NC1CCCCC1)c1cccn2c(=O)c3cc(-c4ccncc4)ccc3nc12"
Response: > 1 µM

Request: Note IC50 for the compound shown: "O=C(NC1CCC(F)(F)CC1)c1cccn2c(=O)c3cc(C4CC4)ccc3nc12"
Response: > 1 µM

Request: Note IC50 for the compound shown: "CN1CCN(c2ccc3nc4c(C(=O)NC5CCCC5)cccn4c(=O)c3c2)CC1"
Response: > 1 µM

Request: Note IC50 for the compound shown: O=C(NC1CCOC1)c1cccn2c(=O)c3cc(C4CC4)ccc3nc12 (stereo not drawn)
Response: > 1 µM

Request: Note IC50 for the compound shown: "O=C(NC1CCCCC1)c1cccn2c(=O)c3cc(-c4ccccc4)ccc3nc12"
Response: > 1 µM

Request: Note IC50 for the compound shown: "O=C(N[C@H]1CCCC[C@H]1O)c1cccn2c(=O)c3cc(C4CC4)ccc3nc12"
Response: > 1 µM

Request: Note IC50 for the compound shown: "O=C(NC1CCCC1)c1cccn2c(=O)c3cc(-c4ccncc4)ccc3nc12"
Response: > 1 µM

---

System: JAK3 (Homo sapiens, UniProt P52333)
Sequence (P52333 795-1124 limits assumed): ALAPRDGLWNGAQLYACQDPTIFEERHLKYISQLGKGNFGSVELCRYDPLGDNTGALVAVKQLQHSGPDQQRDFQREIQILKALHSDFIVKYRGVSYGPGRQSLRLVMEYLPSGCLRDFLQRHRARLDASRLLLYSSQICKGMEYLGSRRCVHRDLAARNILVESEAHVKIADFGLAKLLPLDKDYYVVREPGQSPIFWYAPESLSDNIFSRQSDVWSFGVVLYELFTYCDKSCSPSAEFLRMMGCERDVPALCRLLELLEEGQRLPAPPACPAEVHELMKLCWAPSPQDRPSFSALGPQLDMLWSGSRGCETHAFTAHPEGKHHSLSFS
Assay Method Text: Functional assay of protein Janus kinases (Caliper mobility shift), JAK3
Condition Label: ATP 8 μM, incubation 30 min; read-out: JAK3 enzymatic activity (IC50) score
pIC50: −log10 of the molar value.
Measured Quantity: pIC50

Request: Note pIC50 for the compound shown: "O=C(NC1CCCCC1)c1cccn2c(=O)c3cc(C4CC4)ccc3nc12"
Response: > 7.00

Request: Note pIC50 for the compound shown: "O=C(NC1CCCCC1)c1cccn2c(=O)c3cc(-c4ccncc4)ccc3nc12"
Response: > 7.00

Request: Note pIC50 for the compound shown: CC1COCCC1NC(=O)c1cccn2c(=O)c3cc(C4CC4)ccc3nc12 (stereo not drawn)
Response: > 7.00

Request: Note pIC50 for the compound shown: "CN1CCN(c2ccc3nc4c(C(=O)NC5CCCCC5)cccn4c(=O)c3c2)CC1"
Response: > 7.00

Request: Note pIC50 for the compound shown: O=C(NC1CCCCC1O)c1cccn2c(=O)c3cc(C4CC4)ccc3nc12 (stereo not drawn)
Response: 6.00 to 7.00

Request: Note pIC50 for the compound shown: "O=C(NC1CCOCC1)c1cccn2c(=O)c3cc(C4CC4)ccc3nc12"
Response: 6.00 to 7.00

Request: Note pIC50 for the compound shown: "C[C@]1(O)CC[C@H](NC(=O)c2cccn3c(=O)c4cc(C5CC5)ccc4nc23)CC1"
Response: > 7.00

Request: Note pIC50 for the compound shown: "O=C(NC1CCC(F)(F)CC1)c1cccn2c(=O)c3cc(C4CC4)ccc3nc12"
Response: > 7.00

Request: Note pIC50 for the compound shown: "O=C(NC1CCCCC1)c1cccn2c(=O)c3cc(Br)ccc3nc12"
Response: 6.00 to 7.00

---

Please respond with reported IC50 for every item in the list.
System: TYK2 (Homo sapiens)
Sequence (P29597 871-1187 limits assumed): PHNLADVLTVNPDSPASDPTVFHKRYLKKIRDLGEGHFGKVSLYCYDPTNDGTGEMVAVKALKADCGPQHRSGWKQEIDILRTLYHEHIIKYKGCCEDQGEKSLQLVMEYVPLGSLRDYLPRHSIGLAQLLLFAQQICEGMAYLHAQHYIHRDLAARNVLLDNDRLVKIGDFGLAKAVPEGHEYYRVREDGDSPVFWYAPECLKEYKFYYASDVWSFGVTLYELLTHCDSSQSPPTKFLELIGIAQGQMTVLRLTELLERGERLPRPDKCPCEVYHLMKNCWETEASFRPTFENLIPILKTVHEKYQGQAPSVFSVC
Assay Method Text: Functional assay of protein Janus kinases (Caliper mobility shift), TYK2
Condition Label: ATP 20 μM, incubation 45 min; read-out: TYK2 enzymatic activity (IC50) score

Request: Note IC50 for the compound shown: O=C(NC1CCCCC1O)c1cccn2c(=O)c3cc(C4CC4)ccc3nc12 (stereo not drawn)
Response: < 100 nM

Request: Note IC50 for the compound shown: "O=C(NC1CCCC1)c1cccn2c(=O)c3cc(C4CC4)ccc3nc12"
Response: < 100 nM

Request: Note IC50 for the compound shown: "O=C(N[C@@H]1CCCC[C@H]1O)c1cccn2c(=O)c3cc(C4CC4)ccc3nc12"
Response: > 1000 nM

Request: Note IC50 for the compound shown: "O=C(NC1CCCC1)c1cccn2c(=O)c3cc(-c4ccncc4)ccc3nc12"
Response: < 100 nM

Request: Note IC50 for the compound shown: "CN1CCC(NC(=O)c2cccn3c(=O)c4cc(C5CC5)ccc4nc23)CC1"
Response: > 1000 nM

Request: Note IC50 for the compound shown: "O=C(NC1CCOCC1)c1cccn2c(=O)c3cc(C4CC4)ccc3nc12"
Response: < 100 nM

Request: Note IC50 for the compound shown: "O=C(NC1CCCCC1)c1cccn2c(=O)c3cc(F)ccc3nc12"
Response: 100 to 1000 nM

Request: Note IC50 for the compound shown: "O=C(NC1CCCCC1)c1cccn2c(=O)c3cc(-c4ccncc4)ccc3nc12"
Response: < 100 nM

Request: Note IC50 for the compound shown: O=C(NC1CCOC1)c1cccn2c(=O)c3cc(C4CC4)ccc3nc12 (stereo not drawn)
Response: < 100 nM

---

System: TYK2 (Homo sapiens)
Assay Method Text: Functional assay of protein Janus kinases (Caliper mobility shift), TYK2
Condition Label: ATP 20 μM, incubation 45 min; read-out: TYK2 enzymatic activity (IC50) score
pIC50: −log10 of the molar value.
Please respond with reported pIC50 for every item in the list.

Request: Note pIC50 for the compound shown: O=C(N[C@H]1CC[C@H](O)CC1)c1cccn2c(=O)c3cc(C4CC4)ccc3nc12 [Example 7]
Response: 6.00 to 7.00

Request: Note pIC50 for the compound shown: O=C(N[C@H]1CCCC[C@H]1O)c1cccn2c(=O)c3cc(Br)ccc3nc12 [Example 27]
Response: 6.00 to 7.00

Request: Note pIC50 for the compound shown: C[C@]1(O)CC[C@H](NC(=O)c2cccn3c(=O)c4cc(C5CC5)ccc4nc23)CC1 [Example 6]
Response: > 7.00

Request: Note pIC50 for the compound shown: O=C(NC1CCCCC1)c1cccn2c(=O)c3cc(-c4ccccc4)ccc3nc12 [Example 28]
Response: 6.00 to 7.00

Request: Note pIC50 for the compound shown: O=C(NC1CCC(F)(F)CC1)c1cccn2c(=O)c3cc(C4CC4)ccc3nc12 [Example 15]
Response: 6.00 to 7.00

Request: Note pIC50 for the compound shown: COc1ccc2nc3c(C(=O)NC4CCCCC4)cccn3c(=O)c2c1 [Example 20]
Response: > 7.00

Request: Note pIC50 for the compound shown: O=C(N[C@H]1CCCC[C@@H]1O)c1cccn2c(=O)c3cc(C4CC4)ccc3nc12 [Example 12]
Response: 6.00 to 7.00

Request: Note pIC50 for the compound shown: O=C(NC1CCCCC1)c1cccn2c(=O)c3cc(Br)ccc3nc12 [Example 26]
Response: 6.00 to 7.00

Request: Note pIC50 for the compound shown: CC1COCCC1NC(=O)c1cccn2c(=O)c3cc(C4CC4)ccc3nc12 (centres unmarked) [Example 5]
Response: > 7.00

Request: Note pIC50 for the compound shown: O=C(NC1CCCC1)c1cccn2c(=O)c3cc(Br)ccc3nc12 [Example 25]
Response: > 7.00

Request: Note pIC50 for the compound shown: O=C(NC1CCCC1)c1cccn2c(=O)c3cc(O)ccc3nc12 [Example 18]
Response: > 7.00

Request: Note pIC50 for the compound shown: O=C(NC1CCCCC1)c1cccn2c(=O)c3cc(C4CC4)ccc3nc12 [Example 1]
Response: > 7.00

Request: Note pIC50 for the compound shown: O=C(NC1CCCCC1)c1cccn2c(=O)c3cc(-c4ccc(F)cc4)ccc3nc12 [Example 29]
Response: < 6.00

Request: Note pIC50 for the compound shown: CN1CCN(c2ccc3nc4c(C(=O)NC5CCCC5)cccn4c(=O)c3c2)CC1 [Example 35]
Response: 6.00 to 7.00

Request: Note pIC50 for the compound shown: O=C(NC1CCCCC1)c1cccn2c(=O)c3cc(N4CCOCC4)ccc3nc12 [Example 38]
Response: > 7.00

Request: Note pIC50 for the compound shown: O=C(N[C@@H]1CCCC[C@@H]1O)c1cccn2c(=O)c3cc(C4CC4)ccc3nc12 [Example 11]
Response: 6.00 to 7.00

Request: Note pIC50 for the compound shown: CN1CCN(c2ccc3nc4c(C(=O)NC5CCCCC5)cccn4c(=O)c3c2)CC1 [Example 36]
Response: > 7.00

Request: Note pIC50 for the compound shown: CN1CCN(c2ccc3nc4c(C(=O)N[C@H]5CCCC[C@H]5O)cccn4c(=O)c3c2)CC1 [Example 37]
Response: > 7.00

Request: Note pIC50 for the compound shown: O=C(N[C@H]1CCCC[C@H]1O)c1cccn2c(=O)c3cc(-c4ccncc4)ccc3nc12 [Example 34]
Response: 6.00 to 7.00

Request: Note pIC50 for the compound shown: O=C(N[C@H]1CCCC[C@H]1O)c1cccn2c(=O)c3cc(C4CC4)ccc3nc12 [Example 10]
Response: > 7.00
